details: in isopentanol, 313.17 K
parameter: solubility (mole fraction)
Number only, no unit.

Looking up C[C@H]1[C@H](OC(=O)CCC(=O)O)O[C@@H]2O[C@@]3(C)CC[C@H]4[C@H](C)CC[C@@H]1[C@@]24OO3 , I found its solubility (mole fraction) recorded as 0.0244

---

conditions: in n-butyl acetate, 313.14 K
parameter: solubility (mole fraction)
Form: value (number only, do not type unit).

For C[C@H]1[C@H](OC(=O)CCC(=O)O)O[C@@H]2O[C@@]3(C)CC[C@H]4[C@H](C)CC[C@@H]1[C@@]24OO3 the compound record lists solubility (mole fraction) as 0.0237

---

conditions: in n-butanol, 313.07 K
parameter: solubility (mole fraction)
The reply should be a number, written without any unit.

response.value for C[C@H]1[C@H](OC(=O)CCC(=O)O)O[C@@H]2O[C@@]3(C)CC[C@H]4[C@H](C)CC[C@@H]1[C@@]24OO3 (field: solubility (mole fraction)) = 0.0298

---

details: in n-propanol, 308.05 K
parameter: solubility (mole fraction)
Reply with the value as a number alone.

response.value for C[C@H]1[C@H](OC(=O)CCC(=O)O)O[C@@H]2O[C@@]3(C)CC[C@H]4[C@H](C)CC[C@@H]1[C@@]24OO3 (field: solubility (mole fraction)) = 0.0264

---

settings: in ethyl acetate, 313.17 K
parameter: solubility (mole fraction)
The answer should be a number; do not append a unit.

Quick note, solubility (mole fraction) for C[C@H]1[C@H](OC(=O)CCC(=O)O)O[C@@H]2O[C@@]3(C)CC[C@H]4[C@H](C)CC[C@@H]1[C@@]24OO3 landed at 0.0382
